Experiment: Selectivity ratio of IC50 for rat L6 cells to IC50 for Plasmodium falciparum K1
Type: ADME, cell-based
Settings: L6 cells (cytotoxicity) versus Plasmodium falciparum K1, read-out: Ratio IC50
measure: selectivity ratio
Give the figure by itself; no unit, no explanation.

structure_smiles	selectivity ratio
Brc1cccc2c1[nH]c1c[n+](Cc3ccccc3)ccc12	11

Input: Which value of selectivity ratio has been reported for `Clc1ccc2[nH]c3c[n+](Cc4ccccc4)ccc3c2c1` in the records?
Output: 9

Input: Suppose we examine the compound `COC(=O)CCC[n+]1ccc2c(c1)[nH]c1ccc(Br)cc12` ; what selectivity ratio value has been reported?
Output: 70

Input: May I ask what selectivity ratio has been recorded for `Brc1ccc2[nH]c3c[n+](Cc4ccccc4)ccc3c2c1` ?
Output: 26

Input: Could you share which selectivity ratio value was measured for `O=[N+]([O-])c1ccc(C[n+]2ccc3c(c2)[nH]c2ccc(Cl)cc23)cc1` ?
Output: 19

Input: Which selectivity ratio is reported for this compound? `C=CC[n+]1ccc2c(c1)[nH]c1ccc(Cl)cc12`
Output: 152

* * *

Experiment: Selectivity ratio of IC50 for rat L6 cells to IC50 for Plasmodium falciparum K1
Type: ADME, cell-based
Details: L6 cells (cytotoxicity) versus Plasmodium falciparum K1, read-out: Ratio IC50
Counter-ions that a name gives are not always drawn.
Classification field: fulfilled = selectivity ratio at or over 50; not fulfilled = selectivity ratio under 50.

compound	class_name
Brc1ccc2[nH]c3c[n+](Cc4ccc5ccccc5c4)ccc3c2c1	not fulfilled

Input: Does selectivity ratio meet or surpass 50 for `O=[N+]([O-])c1ccc(C[n+]2ccc3c(c2)[nH]c2ccc(Br)cc23)cc1` ?
Output: not fulfilled

Input: Please check the record C[n+]1cc2[nH]c3ccccc3c2c2ccccc21 [ISONEOCRYPTOLEPINE] and state if its selectivity ratio is at or above 50.
Output: not fulfilled

Input: Textbook exercise: given the entry `Brc1ccc2[nH]c3c[n+](CCCc4ccccc4)ccc3c2c1` , state whether its selectivity ratio is greater than or equal to 50.
Output: fulfilled

Input: Reported selectivity ratio at or above 50? C[n+]1c2ccccc2cc2[n-]c3ccccc3c21 [CRYPTOLEPINE HYDROCHLORIDE]
Output: not fulfilled

Input: Form field: selectivity ratio at least 50? Entry: `CCCC[n+]1ccc2c(c1)[nH]c1ccc(Br)cc12`
Output: fulfilled

Input: Form field: selectivity ratio at least 50? Entry: `C=CC[n+]1ccc2c(c1)[nH]c1ccc(Br)cc12.[Br-]`
Output: fulfilled

Input: Given the entry `C[n+]1ccc2c(c1)[nH]c1ccccc12` , answer whether its selectivity ratio meets or surpasses 50.
Output: fulfilled

Input: Check if selectivity ratio >= 50 (inclusive). Item: `Clc1ccc2[nH]c3c[n+](CCCc4ccccc4)ccc3c2c1`
Output: not fulfilled

* * *

Test system: Trypanosoma cruzi
Experiment: Antiparasitic activity against Trypanosoma cruzi Tulahuen C2C4
Assay type: functional, organism-based
measure: IC50

Consider the following illustrative entries.
structure_smiles	IC50
COC(=O)CCC[n+]1ccc2c(c1)[nH]c1ccc(Br)cc12	64.6 µM
CC[n+]1ccc2c(c1)[nH]c1c(Br)cccc12	170 µM
CCCC[n+]1ccc2c(c1)[nH]c1ccc(Br)cc12	35.3 µM

Input: Notebook: pull reported IC50 for Trypanosoma cruzi, entry `Brc1ccc2[nH]c3c[n+](Cc4ccc5ccccc5c4)ccc3c2c1`
Output: 7.5 µM

Input: Any idea what IC50 came out for `Clc1ccc2[nH]c3c[n+](CCCc4ccccc4)ccc3c2c1` on Trypanosoma cruzi?
Output: 20.9 µM

Input: Field: IC50 (Trypanosoma cruzi). Entry: `C=CC[n+]1ccc2c(c1)[nH]c1ccc(Cl)cc12`
Output: 57.8 µM

Input: Write down the reported IC50 of `CC[n+]1ccc2c(c1)[nH]c1ccc(Br)cc12.[I-]` , test system: Trypanosoma cruzi.
Output: 90.5 µM

Input: API: value(readout= IC50, system= Trypanosoma cruzi, query= `Brc1cccc2c1[nH]c1c[n+](Cc3ccccc3)ccc12` )
Output: 42.9 µM

Input: Lab request: please report IC50 under test system Trypanosoma cruzi for `CC[n+]1ccc2c(c1)[nH]c1ccc(Cl)cc12.[I-]`
Output: 100 µM

Input: Requested read-out IC50, target or system Trypanosoma cruzi, entry `Brc1cccc2c1[nH]c1c[n+](Cc3ccc4ccccc4c3)ccc12`
Output: 7.9 µM

Input: IC50 of `Fc1ccc(C[n+]2ccc3c(c2)[nH]c2ccc(Cl)cc23)cc1` on Trypanosoma cruzi?
Output: 87.7 µM

* * *

Some compounds, each annotated with its measured Activity.
Test system: Plasmodium berghei
Assay: Antiparasitic activity against Plasmodium berghei infected in mice (Mus musculus) assessed as reduction of parasitaemia at 50 mg/kg, intraperitoneally administered 4, 24, 48, 72 hrs post infection measured 24 hrs of last treatment on day 4 relative to control
Type: functional
Set-up: scale not given: the % may be the effect or the level left
Settings: route intraperitoneal
Dear colleague, please return just the value in %, with no unit written.

# example entries with known answers
compound	Activity, %
C=CC[n+]1ccc2c(c1)[nH]c1ccc(Br)cc12.[Br-]	3.57
CC[n+]1ccc2c(c1)[nH]c1ccc(Br)cc12.[I-]	13.25
C[n+]1ccc2c(c1)[nH]c1ccc(Cl)cc12.[I-] [NOSTOCARBOLINE]	49.6
C[n+]1ccc2c(c1)[nH]c1ccc(Br)cc12.[I-]	0
Clc1ccc2[nH]c3c[n+](Cc4ccc(-c5ccc(C[n+]6ccc7c(c6)[nH]c6ccc(Cl)cc67)cc5)cc4)ccc3c2c1.[Cl-].[Cl-]	0

Input: Looking for the measured Activity of `CC[n+]1ccc2c(c1)[nH]c1ccc(Cl)cc12.[I-]` , can you help?
Output: 15.36

Input: Please give the measured Activity for this compound: `Clc1ccc2[nH]c3c[n+](C/C=C\C[n+]4ccc5c(c4)[nH]c4ccc(Cl)cc45)ccc3c2c1.[Cl-].[Cl-]`
Output: 11.53

Input: Query (compound): `Clc1ccc2[nH]c3c[n+](CCOCC[n+]4ccc5c(c4)[nH]c4ccc(Cl)cc45)ccc3c2c1.[Cl-].[Cl-]` ; field requested: Activity
Output: 2.6

Input: Please report the recorded Activity for `Clc1ccc2[nH]c3c[n+](CCCCCC[n+]4ccc5c(c4)[nH]c4ccc(Cl)cc45)ccc3c2c1.[Br-].[Br-]` .
Output: 0

* * *

Test system: Plasmodium falciparum
Assay: Antiparasitic activity against Plasmodium falciparum K1
Format: functional, organism-based
Recorded IC50 by entry
// return numeric value only (unit: nM, not printed)

Input: // query IC50 value for entry `Fc1ccc(C[n+]2ccc3c(c2)[nH]c2ccc(Cl)cc23)cc1`
Output: 4670

Input: So what's the measured IC50 for this one? `CC[n+]1ccc2c(c1)[nH]c1ccc(Cl)cc12.[I-]`
Output: 452

Input: // query IC50 value for entry `C[n+]1ccc2c(c1)[nH]c1ccc(Br)cc12.[I-]`
Output: 18

Input: Which IC50 is listed for `Brc1cccc2c1[nH]c1c[n+](Cc3ccccc3)ccc12` ?
Output: 2580

Input: Report IC50 for `Brc1ccc2[nH]c3c[n+](Cc4ccc5ccccc5c4)ccc3c2c1` please.
Output: 481

* * *

Assay: Selectivity ratio of IC50 for rat L6 cells to IC50 for Plasmodium falciparum K1
Format: ADME, cell-based
Details: L6 cells (cytotoxicity) versus Plasmodium falciparum K1, read-out: Ratio IC50
measure: selectivity ratio
Could you keep your reply to the number by itself?

Check out these entries, answers already filled in.
structure_smiles	measure	meas_value
C=CC[n+]1ccc2c(c1)[nH]c1c(Br)cccc12	selectivity ratio	17
CC[n+]1ccc2c(c1)[nH]c1ccc(Cl)cc12.[I-]	selectivity ratio	250
Fc1ccc(C[n+]2ccc3c(c2)[nH]c2ccc(Cl)cc23)cc1	selectivity ratio	24
C[n+]1ccc2c(c1)[nH]c1ccc(Br)cc12.[I-]	selectivity ratio	4780
COC(=O)CCC[n+]1ccc2c(c1)[nH]c1ccc(Cl)cc12	selectivity ratio	66
CCCC[n+]1ccc2c(c1)[nH]c1ccc(Cl)cc12	selectivity ratio	46
CC[n+]1ccc2c(c1)[nH]c1c(Br)cccc12	selectivity ratio	23
Fc1ccc(C[n+]2ccc3c(c2)[nH]c2c(Br)cccc23)cc1	selectivity ratio	5
Brc1cccc2c1[nH]c1c[n+](Cc3ccc4ccccc4c3)ccc12	selectivity ratio	7
Fc1ccc(C[n+]2ccc3c(c2)[nH]c2ccc(Br)cc23)cc1	selectivity ratio	13

Input: # lookup: selectivity ratio of `Fc1cccc(C[n+]2ccc3c(c2)[nH]c2ccc(Br)cc23)c1`
Output: 19

Input: Data request, read-out selectivity ratio, for `CC[n+]1ccc2c(c1)[nH]c1ccc(Br)cc12.[I-]`
Output: 2440

* * *

System: Trypanosoma cruzi
Test: Antiparasitic activity against Trypanosoma cruzi Tulahuen C2C4
Assay type: functional, organism-based
measure: IC50 (µM)
Please state the figure in µM; there is no need to write the unit.

Solved entries (count: 6):
structure_smiles	IC50 / µM
Fc1cccc(C[n+]2ccc3c(c2)[nH]c2ccc(Br)cc23)c1	25.9
C[n+]1ccc2c(c1)[nH]c1ccc(Br)cc12.[I-]	132
Fc1ccc(C[n+]2ccc3c(c2)[nH]c2ccc(Br)cc23)cc1	13.3
Fc1ccc(C[n+]2ccc3c(c2)[nH]c2c(Br)cccc23)cc1	28.7
Brc1ccc2[nH]c3c[n+](CCCc4ccccc4)ccc3c2c1	12.6
O=[N+]([O-])c1ccc(C[n+]2ccc3c(c2)[nH]c2ccc(Br)cc23)cc1	14.1

Input: Endpoint output: IC50 of `O=[N+]([O-])c1ccc(C[n+]2ccc3c(c2)[nH]c2ccc(Cl)cc23)cc1` . Value?
Output: 32.8

Input: Dear colleague, I am looking for the recorded IC50 of the following molecule: `CCCC[n+]1ccc2c(c1)[nH]c1ccc(Cl)cc12`
Output: 104

Input: Look up IC50 for this molecule: `Clc1ccc2[nH]c3c[n+](Cc4ccccc4)ccc3c2c1`
Output: 24.6

Input: Consider the molecule `C=CC[n+]1ccc2c(c1)[nH]c1ccc(Br)cc12.[Br-]` and give its measured IC50.
Output: 86.6

Input: Suppose we examine the molecule `Brc1ccc2[nH]c3c[n+](Cc4ccccc4)ccc3c2c1` ; what IC50 value has been reported?
Output: 16.3

Input: # input molecule: `C=CC[n+]1ccc2c(c1)[nH]c1c(Br)cccc12` ; wanted: its IC50
Output: 154

Input: Quick check: IC50 of `COC(=O)CCC[n+]1ccc2c(c1)[nH]c1ccc(Cl)cc12` ?
Output: 115
